molecular target: T1, human serum albumin (human, UniProt P02768 25-609); assay: indirect ELISA, HSA coated
T1 construct: In the mutant screen wild type HSA came from medium of transfected HeLa cells; also called HSA; wild type HSA
T1 sequence (P02768 25-609 limits assumed): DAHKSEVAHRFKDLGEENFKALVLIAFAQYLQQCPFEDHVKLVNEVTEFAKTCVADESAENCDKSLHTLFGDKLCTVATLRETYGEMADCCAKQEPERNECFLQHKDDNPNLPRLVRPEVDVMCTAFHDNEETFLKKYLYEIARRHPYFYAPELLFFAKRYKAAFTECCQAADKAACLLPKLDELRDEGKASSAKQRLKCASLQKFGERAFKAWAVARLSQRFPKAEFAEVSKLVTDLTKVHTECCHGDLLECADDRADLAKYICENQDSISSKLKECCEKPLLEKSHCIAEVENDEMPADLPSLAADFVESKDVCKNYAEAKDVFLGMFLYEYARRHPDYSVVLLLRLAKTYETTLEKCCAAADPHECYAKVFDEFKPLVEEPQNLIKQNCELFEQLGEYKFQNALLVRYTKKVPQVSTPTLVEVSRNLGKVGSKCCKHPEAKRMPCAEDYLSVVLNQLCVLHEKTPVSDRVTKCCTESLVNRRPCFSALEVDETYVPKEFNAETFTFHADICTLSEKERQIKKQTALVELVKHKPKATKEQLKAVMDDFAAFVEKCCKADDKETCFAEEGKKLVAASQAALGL
VALUE TYPE: ELISA affinity (LogIC50 (oD450nm))
One number for each entry.

Some entries whose results are on file:
ELISA affinity (LogIC50 (oD450nm)) lookup needed for H30 (VHH) VHH: HVQLVESGGGLAQAGGSLRLSCAASGGTFSNSCMGWFRQAPGMEREFVAIIRSTGHTTYADSVEGRFTVSRDIAKNTVYLEMNSLKPEDTAVYSCVAGVSDYGCYRTSGIKYWGQGTQVTVSS , thanks. 5.89

// query ELISA affinity (LogIC50 (oD450nm)) value for entry H1 (VHH) VHH: QVQLVESGGGLVQPGGSLRLSCVASGIMFDIYTMRWYRQAPGKQRELVAAITGAGRANYNDDSVKGRFTISRDNAKNTVYLQMNRMKPEDTALYECNTEILGGGPNYWGRGTQVTVSE 4.92

# lookup: ELISA affinity (LogIC50 (oD450nm)) of H4 (VHH) VHH: HVQLVESGGGLVQTGGSLRLACAASGRAFSTYAMGWFRQAPGKEREFVASINRSGSSTYYADSVKGRFTISRDNGKDTVYLQMNRLIPEDTAVYYCAADSEGVGFRNMLEYDYWGQGTQVTVSS 5.4

Then there is this binder:
# get_value(readout='ELISA affinity (LogIC50 (oD450nm))', item= H25 (VHH) VHH: DVQLVESGGGLVQAGGSLRLSCAASGRTISDYGMAWFRQAPGKEREFVGVITSNSVTTYYADSVKGRFTISRDNTKNTVYLQMISLKPEDTAIYYCAARIPVGFYYNARNYDFWGQGTQVTVSS ) 5.34
